// provenance: patent US7452997B2

Overview of recorded log10(IC50) for various compounds
- system tested: human CB1 receptor (Homo sapiens, UniProt P21554)
- Construct: expressed in transfected cells; host or cells: SK-N-MC cells, stably transfected with pcDNA3 CB-1 (human); semi-purified membrane pellet
- Sequence (P21554 whole entry): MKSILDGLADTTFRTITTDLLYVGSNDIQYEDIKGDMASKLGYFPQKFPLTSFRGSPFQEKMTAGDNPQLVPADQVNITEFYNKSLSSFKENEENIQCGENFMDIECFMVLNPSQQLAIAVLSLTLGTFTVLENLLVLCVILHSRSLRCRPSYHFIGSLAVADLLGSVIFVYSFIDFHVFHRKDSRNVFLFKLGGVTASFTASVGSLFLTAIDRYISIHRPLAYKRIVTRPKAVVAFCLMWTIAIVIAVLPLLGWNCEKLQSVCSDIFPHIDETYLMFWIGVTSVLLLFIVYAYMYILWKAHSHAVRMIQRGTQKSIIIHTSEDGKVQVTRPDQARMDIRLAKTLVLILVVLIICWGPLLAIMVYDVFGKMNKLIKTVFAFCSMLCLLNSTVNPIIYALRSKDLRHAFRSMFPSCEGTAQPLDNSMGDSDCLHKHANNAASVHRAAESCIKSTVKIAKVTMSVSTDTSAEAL
- method notes: biochemical
- Format: binding
experimental endpoint: log10(IC50) (log10 of the value in µM)

[[record]]
compound = "CCOC(=O)C1C2CCC(C2)C1NC(=O)c1nn(Cc2ccc(C)cc2)c2c1CCCC2 (stereo not drawn)"
system_tested = "human CB1 receptor (Homo sapiens, UniProt P21554)"
experimental_endpoint = "log10(IC50)"
numeric_result = -0.22

[[record]]
compound = "O=C(NN1CCCCCC1)c1nn(-c2ccc(Cl)cc2Cl)c2c1CCC/C2=C\\c1ccc(Cl)s1"
system_tested = "human CB1 receptor (Homo sapiens, UniProt P21554)"
experimental_endpoint = "log10(IC50)"
numeric_result = -1.82

[[record]]
compound = "O=C(NNC1CCCCC1)c1nn(C2CCCCC2)c2c1CCCC2"
system_tested = "human CB1 receptor (Homo sapiens, UniProt P21554)"
experimental_endpoint = "log10(IC50)"
numeric_result = 0.23

[[record]]
compound = "CCOC(=O)[C@@H]1C2CCC(C2)[C@@H]1NC(=O)c1nn(Cc2ccccc2)c2c1CCCC2 (stereo partly drawn)"
system_tested = "human CB1 receptor (Homo sapiens, UniProt P21554)"
experimental_endpoint = "log10(IC50)"
numeric_result = -1.73

[[record]]
compound = "O=C(NC1C2CC3CC(C2)CC1C3)c1nn(C2CCCCC2)c2c1CC(C(=O)O)CC2 (stereo not drawn)"
system_tested = "human CB1 receptor (Homo sapiens, UniProt P21554)"
experimental_endpoint = "log10(IC50)"
numeric_result = 2.23

[[record]]
compound = "O=C(NC(Cc1ccc(OCc2ccccc2)cc1)C(=O)O)c1nn(C2CCCCC2)c2c1CCCC2 (stereo not drawn)"
system_tested = "human CB1 receptor (Homo sapiens, UniProt P21554)"
experimental_endpoint = "log10(IC50)"
numeric_result = 0.66

[[record]]
compound = "CCOC(=O)[C@@H]1C2C=CC(C2)[C@@H]1NC(=O)c1nn(C2CCCCC2)c2c1CCCC2 (stereo partly drawn)"
system_tested = "human CB1 receptor (Homo sapiens, UniProt P21554)"
experimental_endpoint = "log10(IC50)"
numeric_result = 0.56

[[record]]
compound = "CC(C)OC(=O)C1CCc2c(c(C(=O)NC3C4CC5CC(C4)CC3C5)nn2C2CCCCC2)C1 (stereo not drawn)"
system_tested = "human CB1 receptor (Homo sapiens, UniProt P21554)"
experimental_endpoint = "log10(IC50)"
numeric_result = 0.38

[[record]]
compound = "CC(CC1CCCCC1)NC(=O)c1nn(C2CCCCC2)c2c1CCCC2 (stereo not drawn)"
system_tested = "human CB1 receptor (Homo sapiens, UniProt P21554)"
experimental_endpoint = "log10(IC50)"
numeric_result = 0.28

[[record]]
compound = "O=C(NCCN1CCOCC1)c1nn(Cc2ccccc2)c2c1CCCC2"
system_tested = "human CB1 receptor (Homo sapiens, UniProt P21554)"
experimental_endpoint = "log10(IC50)"
numeric_result = 0.33

[[record]]
compound = "O=C(NNC1CCCCC1)c1nn(-c2ccc(F)cc2)c2c1CCCC2"
system_tested = "human CB1 receptor (Homo sapiens, UniProt P21554)"
experimental_endpoint = "log10(IC50)"
numeric_result = 0.90

[[record]]
compound = "O=C(NC1CCCCCCC1)c1nn(C2CCCCC2)c2c1CCCC2"
system_tested = "human CB1 receptor (Homo sapiens, UniProt P21554)"
experimental_endpoint = "log10(IC50)"
numeric_result = -2.00

[[record]]
compound = "CC(NC(=O)c1nn(CC2CCCCC2)c2c1CCCC2)C12CC3CC(CC(C3)C1)C2 (stereo not drawn)"
system_tested = "human CB1 receptor (Homo sapiens, UniProt P21554)"
experimental_endpoint = "log10(IC50)"
numeric_result = -2.12

[[record]]
compound = "C[C@@H](NC(=O)c1nn(-c2ccc(Cl)cc2Cl)c2c1CCCC2=Cc1ccc(Cl)s1)C1CCCCC1"
system_tested = "human CB1 receptor (Homo sapiens, UniProt P21554)"
experimental_endpoint = "log10(IC50)"
numeric_result = -2.15

[[record]]
compound = "CC(C)N(C(=O)c1nn(C2CCCCC2)c2c1CCCC2)[C@H](C)C1CCCCC1"
system_tested = "human CB1 receptor (Homo sapiens, UniProt P21554)"
experimental_endpoint = "log10(IC50)"
numeric_result = 0.23

[[record]]
compound = "O=C(NN1CCCCC1)c1nn(-c2ccc(Cl)cc2Cl)c2c1CCC/C2=C\\c1ccco1"
system_tested = "human CB1 receptor (Homo sapiens, UniProt P21554)"
experimental_endpoint = "log10(IC50)"
numeric_result = -1.72

[[record]]
compound = "CC12CCC(C1)C(C)(C)C2NC(=O)Nc1nn(Cc2ccccc2)c2c1CCCC2 (stereo not drawn)"
system_tested = "human CB1 receptor (Homo sapiens, UniProt P21554)"
experimental_endpoint = "log10(IC50)"
numeric_result = 0.13

[[record]]
compound = "CC(C)(Cc1nn(C2CCCCC2)c2c1CCCC2)C(=O)NC1C2CC3CC(C2)CC1C3 (stereo not drawn)"
system_tested = "human CB1 receptor (Homo sapiens, UniProt P21554)"
experimental_endpoint = "log10(IC50)"
numeric_result = 0.56

[[record]]
compound = "CCOC(=O)[C@@H]1C2CCC(C2)[C@@H]1NC(=O)c1c2c(nn1Cc1ccccc1)CCCC2 (stereo partly drawn)"
system_tested = "human CB1 receptor (Homo sapiens, UniProt P21554)"
experimental_endpoint = "log10(IC50)"
numeric_result = 0.20

[[record]]
compound = "CCOC(=O)C1C2CCC(C2)C1NC(=O)c1nn(Cc2ccccc2)c2c1CCCC2 (stereo not drawn)"
system_tested = "human CB1 receptor (Homo sapiens, UniProt P21554)"
experimental_endpoint = "log10(IC50)"
numeric_result = -1.85

[[record]]
compound = "CCOC(=O)C1CCc2c(c(C(=O)NC3C4CCC(C4)C3C(=O)OCC)nn2C2CCCCC2)C1 (stereo not drawn)"
system_tested = "human CB1 receptor (Homo sapiens, UniProt P21554)"
experimental_endpoint = "log10(IC50)"
numeric_result = 0.60

[[record]]
compound = "O=C(N[C@H](CO)c1ccccc1)c1nn(-c2ccc(Cl)cc2Cl)c2c1CCCC2=Cc1ccsc1"
system_tested = "human CB1 receptor (Homo sapiens, UniProt P21554)"
experimental_endpoint = "log10(IC50)"
numeric_result = -1.11

[[record]]
compound = "O=C(NN1CCCCC1)c1nn(-c2ccc(Cl)cc2Cl)c2c1CCC/C2=C\\c1ccc(Br)cc1"
system_tested = "human CB1 receptor (Homo sapiens, UniProt P21554)"
experimental_endpoint = "log10(IC50)"
numeric_result = -1.68

[[record]]
compound = "O=C(CNC(=O)c1nn(C2CCCCC2)c2c1CCCC2)c1ccc(Br)cc1"
system_tested = "human CB1 receptor (Homo sapiens, UniProt P21554)"
experimental_endpoint = "log10(IC50)"
numeric_result = 1.02

[[record]]
compound = "CCOC(=O)C1CCc2nn(Cc3ccccc3)c(C(=O)NC34CC5CC(CC3C5)C4)c2C1 (stereo not drawn)"
system_tested = "human CB1 receptor (Homo sapiens, UniProt P21554)"
experimental_endpoint = "log10(IC50)"
numeric_result = 0.44

[[record]]
compound = "CCOC(=O)C1CCc2c(C(=O)NCC34CC5CC(CC(C5)C3)C4)nn(Cc3ccccc3)c2C1 (stereo not drawn)"
system_tested = "human CB1 receptor (Homo sapiens, UniProt P21554)"
experimental_endpoint = "log10(IC50)"
numeric_result = -1.01

[[record]]
compound = "CC(NC(=O)c1nn(-c2ccc(Cl)cc2Cl)c2c1CCC/C2=C\\c1ccc(Cl)cc1)c1ccccn1 (stereo not drawn)"
system_tested = "human CB1 receptor (Homo sapiens, UniProt P21554)"
experimental_endpoint = "log10(IC50)"
numeric_result = -1.85

[[record]]
compound = "O=C(NC(Cc1ccc(OCc2ccccc2)cc1)C(=O)O)c1nn(Cc2ccccc2)c2c1CCCC2 (stereo not drawn)"
system_tested = "human CB1 receptor (Homo sapiens, UniProt P21554)"
experimental_endpoint = "log10(IC50)"
numeric_result = 0.29

[[record]]
compound = "CC(NC(=O)c1nn(C2CCCCC2)c2c1CCCC2)C1CCCC1 (stereo not drawn)"
system_tested = "human CB1 receptor (Homo sapiens, UniProt P21554)"
experimental_endpoint = "log10(IC50)"
numeric_result = -0.92

[[record]]
compound = "C[C@@H](NC(=O)c1nn(C2CCCCC2)c2c1CCCC2)c1ccccc1"
system_tested = "human CB1 receptor (Homo sapiens, UniProt P21554)"
experimental_endpoint = "log10(IC50)"
numeric_result = -0.01

[[record]]
compound = "CC(c1ccccc1)n1nc(C(=O)NC2C3CC4CC(C3)CC2C4)c2c1CCCC2 (stereo not drawn)"
system_tested = "human CB1 receptor (Homo sapiens, UniProt P21554)"
experimental_endpoint = "log10(IC50)"
numeric_result = -0.89

[[record]]
compound = "CCOC[C@H]1C2CCC(C2)[C@H]1NC(=O)c1nn(C2CCCCC2)c2c1CCCC2 (stereo partly drawn)"
system_tested = "human CB1 receptor (Homo sapiens, UniProt P21554)"
experimental_endpoint = "log10(IC50)"
numeric_result = -0.04

[[record]]
compound = "CCOC(=O)C(Cc1nn(C2CCCCC2)c2c1CCCC2)c1ccccc1OC (stereo not drawn)"
system_tested = "human CB1 receptor (Homo sapiens, UniProt P21554)"
experimental_endpoint = "log10(IC50)"
numeric_result = 0.59

